B1: C8orf76 (parent)
chain: KLAEAYLNLGPALSAALASSQKQH

- Variants of: B1
- PROTOCOL TEXT: protein stability index of a GFP-peptide fusion (GPS, HEK-293T) (PSI 1-6); higher = more stable;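 also: lentivirally expressed fusions sorted by FACS into six bins by GFP to DsRed ratio, PSI derived from sequencing read proportions per bin multiplied by bin number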
- CONDITION PARAMETERS: c terminus: a fixed tail appended
Rule: protein stability index of 2 or more gives yes (1); anything lower gives no (0).

{"columns": ["VARIANT NOTATION", "ASSIGNED CATEGORY"],
 "data": [
  ["E4C", "no (0)"],
  ["A15I", "yes (1)"],
  ["K22F", "yes (1)"],
  ["Q21M", "yes (1)"],
  ["L9H", "yes (1)"],
  ["A3W", "yes (1)"],
  ["S19T", "yes (1)"],
  ["H24E", "no (0)"],
  ["L9N", "yes (1)"],
  ["Y6D", "yes (1)"],
  ["S14E", "no (0)"],
  ["L7T", "no (0)"],
  ["S14Y", "yes (1)"],
  ["S19W", "yes (1)"],
  ["S19G", "yes (1)"],
  ["P11Y", "no (0)"],
  ["Q21V", "yes (1)"],
  ["H24M", "yes (1)"],
  ["G10R", "no (0)"],
  ["L17P", "yes (1)"],
  ["K22S", "yes (1)"],
  ["L7K", "no (0)"],
  ["E4V", "no (0)"],
  ["S19I", "yes (1)"],
  ["L13P", "yes (1)"],
  ["S20A", "yes (1)"],
  ["A12G", "no (0)"],
  ["A5V", "no (0)"],
  ["S20T", "no (0)"],
  ["L9P", "yes (1)"],
  ["S20H", "yes (1)"],
  ["L2Q", "yes (1)"],
  ["L13H", "yes (1)"],
  ["Q21A", "yes (1)"],
  ["L17K", "no (0)"],
  ["L13C", "yes (1)"],
  ["S19N", "yes (1)"],
  ["S19C", "yes (1)"],
  ["A12D", "yes (1)"],
  ["A12S", "yes (1)"],
  ["L13K", "yes (1)"],
  ["S19K", "yes (1)"],
  ["L9G", "yes (1)"],
  ["A16Q", "yes (1)"],
  ["L9V", "no (0)"]
]}
